# Run Parameters: 308.15 K; 101 kPa; Liquid; Pulse-echo method
± gives the expanded uncertainty stated by the source.
Measured Property: speed of sound
Field: value (include unit after the number)

Examples from the recorded data:
Compound	Result
Cc1ccccc1Cl	1262.7 ± 1.2 m/s
C1COCO1	1294.7 ± 1 m/s
C1CCOCC1 [tetrahydropyran]	1224.4 ± 1 m/s

Recorded speed of sound for C1COCCO1 , please?
1302.5 ± 1.1 m/s

* * *

# Run Parameters: 298.15 K; 101 kPa; Liquid; Vibrating tube method
mass density for assorted compounds
Supply the numeric figure in kg/m3, leaving out any unit text.

Examples from the recorded data:
Compound	Unit Of Measurement	mass density
C1COCCO1 [1,4-dioxane]	kg/m3	1027.9
Cc1ccccc1Cl [2-chlorotoluene]	kg/m3	1077.3
C1CCOCC1 [tetrahydropyran]	kg/m3	879.13

Let us examine a further case.
Recorded mass density for C1COCO1 [1,3-dioxolane] , please?
1058.9

* * *

# Run Parameters: 308.15 K; 101 kPa; Liquid; Vibrating tube method
± gives the expanded uncertainty stated by the source.
mass density for assorted molecules

Examples from the recorded data:
Molecule	mass density
C1COCCO1	1016.6 ± 1 kg/m3
Cc1ccccc1Cl	1067.6 ± 1 kg/m3
C1CCOCC1 [tetrahydropyran]	868.83 ± 1 kg/m3

Let us examine a further case.
Recorded mass density for C1COCO1 , please?
1046.3 ± 1 kg/m3

* * *

# Run Parameters: 303.15 K; 101 kPa; Liquid; Vibrating tube method
Measured Property: mass density (kg/m3)
Supply the numeric figure in kg/m3, leaving out any unit text.

Molecule	mass density [kg/m3]
C1CCOCC1 [tetrahydropyran]	873.99
C1COCO1 [1,3-dioxolane]	1052.6
Cc1ccccc1Cl [2-chlorotoluene]	1072.5

Recorded mass density for C1COCCO1 [1,4-dioxane] , please?
1022.3

* * *

# Run Parameters: 303.15 K; 101 kPa; Liquid; Pulse-echo method
Measured Property: speed of sound (m/s)
Supply the numeric figure in m/s, leaving out any unit text.

Examples from the recorded data:
Compound	speed of sound [m/s]
C1COCCO1 [1,4-dioxane]	1324.4
Cc1ccccc1Cl [2-chlorotoluene]	1280.7
C1CCOCC1 [tetrahydropyran]	1246.8

Let us examine a further case.
Recorded speed of sound for C1COCO1 [1,3-dioxolane] , please?
1316.8

* * *

speed of sound for assorted compounds
# Run Parameters: 298.15 K; 101 kPa; Liquid; Pulse-echo method
Supply the numeric figure in m/s, leaving out any unit text.

Recorded speed of sound for C1CCOCC1 [tetrahydropyran] , please?
1269.8

Recorded speed of sound for Cc1ccccc1Cl , please?
1298.7

Recorded speed of sound for C1COCO1 , please?
1338.7

Recorded speed of sound for C1COCCO1 , please?
1346

Sourced from the NIST ThermoML archive (doi:10.1021/je400722h)
